test.method.notes: solvent given as SMILES
experimental.setup: in Cc1ccccc1
reported.metric: emission maximum (nm)
Record the value in nm, omitting the unit from your answer.

These recorded examples may help you get a feel for the data.
c1ccc(-c2nc(-c3ccc(N4c5ccccc5C(c5ccccc5)(c5ccccc5)c5ccccc54)cc3)cc(-c3ccc(N4c5ccccc5C(c5ccccc5)(c5ccccc5)c5ccccc54)cc3)n2)cc1 ... 456
CC1(C)C2=C(c3ccc(N(c4ccccc4)c4ccccc4)cc31)P(=O)(c1ccccc1)c1ccccc12 (stereo not drawn) ... 511
CCOC(=O)/C(C#N)=C\c1ccc2c(c1)c1ccccc1n2-c1ccc(C)cc1 ... 444
N#CC(C#N)=Cc1cn(-c2ccccc2)nc1-c1ccccc1 ... 430
Brc1ccc(-c2nc(-c3ccc(C#Cc4ccc(-n5c6ccccc6c6ccccc65)cc4)cc3)nc(-c3ccc(C#Cc4ccc(-n5c6ccccc6c6ccccc65)cc4)cc3)n2)cc1 ... 432

In: Fill in emission maximum for record COc1ccc(C2=CC(c3cc(OC)cc(OC)c3)=[O+][B-](F)(F)O2)cc1
Out: 450.94

In: Fill in emission maximum for record C#CCOc1ccc(C2=[N+]3C(=Nc4c(-c5ccccc5)cc(-c5ccc(O)cc5)n4[B-]3(F)F)C(c3ccccc3)=C2)cc1
Out: 711

In: Fill in emission maximum for record N#CC(C#N)=C(/C=C/c1cn(-c2ccccc2)nc1-c1ccccc1)c1ccccc1
Out: 460

###

test.method.notes: solvent given as SMILES
experimental.setup: in CCOCC
Each entry below carries its reported emission maximum.
Record the value in nm, omitting the unit from your answer.

In: Fill in emission maximum for record CC(C)[Si]1(C(C)C)c2cc(C#N)ccc2-c2ccc(N(C)C)cc21
Out: 423

In: Fill in emission maximum for record CN(C)c1ccc(/C=C2\OC(=O)c3cc(N)ccc32)cc1
Out: 444.84

In: Fill in emission maximum for record CC(=O)Nc1ccc2c3c(cccc13)C(=O)c1ccccc1-2
Out: 518.13

In: Fill in emission maximum for record Oc1cccc(/N=C/c2ccccc2Oc2ccccc2)c1
Out: 404

In: Fill in emission maximum for record c1ccc2c(-n3cnc4ccccc43)cccc2c1
Out: 361

In: Fill in emission maximum for record Nc1ccc(/C=C2\OC(=O)c3ccccc32)cc1
Out: 485.91

In: Fill in emission maximum for record Nc1ccc(-c2ccc3c(c2)C(=O)c2ccccc2C3=O)cc1
Out: 643

In: Fill in emission maximum for record Oc1ccccc1/C=N/N=C/c1ccccc1O
Out: 588.24

In: Fill in emission maximum for record CN(C)c1ccc(/C=C/c2ccc(C#N)cc2)cc1
Out: 475

In: Fill in emission maximum for record CCCCC(CC)Cn1c2cc(C#N)ccc2c2cc(-c3ccc(N(c4ccccc4)c4ccccc4)cc3)c(C#N)cc21 (stereo not given)
Out: 501

In: Fill in emission maximum for record CCC1(CC)c2cc(C=O)ccc2-c2ccc(N(C)C)cc21
Out: 436

In: Fill in emission maximum for record CCC1=C(C)C2=C(C)c3c(C)c(CC)c(C)n3[B-](F)(F)[N+]2=C1C
Out: 532.8

In: Fill in emission maximum for record COC(=O)C(Cc1ccc2oc(-c3ccc(Nc4ccccc4)cc3)nc2c1)NC(=O)OC(C)(C)C (stereo not given)
Out: 409.5

In: Fill in emission maximum for record CCCCCCOc1ccc(N(c2ccc(OCCCCCC)cc2)c2ccc(-c3sc(-c4ccc(N(c5ccc(OCCCCCC)cc5)c5ccc(OCCCCCC)cc5)cc4)c4nc(-c5ccccc5)c(-c5ccccc5)nc34)cc2)cc1
Out: 751

In: Fill in emission maximum for record COc1ccc(/C=C/C2=[O+][B-](F)(F)OC(/C=C/c3ccc(OC)c4ccccc34)=C2c2ccccc2)c2ccccc12
Out: 583

In: Fill in emission maximum for record COc1ccc(/C=C/c2ccccc2)cc1
Out: 366

In: Fill in emission maximum for record N#Cc1ccc(-c2ccc3c(c2)c2cc(-c4ccc(C#N)cc4)ccc2c2c3nc(-c3ccc(N(c4ccccc4)c4ccccc4)cc3)n2-c2ccccc2)cc1
Out: 439.6

In: Fill in emission maximum for record CCCCCCCCCCCCCCCCOc1cc(C#Cc2ccc3ccccc3c2)c(OCCCCCCCCCCCCCCCC)cc1C#Cc1ccc(C=C(C#N)C#N)cc1
Out: 550

In: Fill in emission maximum for record COC(=O)c1ccc(C#Cc2ccc(N(C)C)cc2)cc1
Out: 458.51

In: Fill in emission maximum for record CN(C)c1ccc(/C=C/C=C2\CC/C(=C\c3ccc(N(C)C)cc3)C2=O)cc1
Out: 546

###

Each entry below carries its reported emission maximum.
test.method.notes: solvent given as SMILES
experimental.setup: in c1ccccc1
Record the value in nm, omitting the unit from your answer.

These recorded examples may help you get a feel for the data.
CN(C)c1ccc2nc(-c3ccccc3)sc2c1Cl ... 425.86
CCCCC[n+]1ccc(/C=C/c2ccc(N(C)C)c3ccccc23)c2ccccc21 ... 675
CCCCN(CCCC)c1ccc2c#cc3cc4c#cc5ccc(N(CCCC)CCCC)cc5c#cc#cc5cc(C(F)(F)F)ccc5c#cc4cc3c#cc3ccc(C(F)(F)F)cc3c#cc#cc2c1 ... 501
CCC1=C(C)C2=C(C)c3c(C)c(CC)c(C)n3[B-](F)(F)[N+]2=C1C ... 536.4
CC1(C)CCc2c(c3ccccc3c3nc4ccccc4nc23)O1 ... 471.03
CCC1=C(C)C(=O)n2c1cc1c(C)c(CC)c(C)n1c2=O ... 500
CCCCN(CCCC)c1ccc(C#Cc2cc(C#Cc3ccc(C#N)cc3)c(C#Cc3ccc(C#N)cc3)cc2C#Cc2ccc(N(CCCC)CCCC)cc2)cc1 ... 508
CC(C)(C)C1Nc2ccccc2C(=O)N1c1ccccc1 (stereo unspecified) ... 400

In: Fill in emission maximum for record Cc1cc2ccc(-c3cccc4cccc(-c5ccc6cc(C)c(=O)oc6c5)c34)cc2oc1=O
Out: 398

In: Fill in emission maximum for record CN(C)c1ccc2nc(-c3ccc(C(=O)Nc4ccccc4)cc3)sc2c1
Out: 475

In: Fill in emission maximum for record CCOC(=O)CSc1nc2c(c(C#N)c1C#N)CCCCCC2
Out: 408

###

Each entry below carries its reported emission maximum.
test.method.notes: solvent given as SMILES
experimental.setup: in C1CCOC1
Record the value in nm, omitting the unit from your answer.

CCN(CC)c1ccc(-c2nc3c(c4c2-c2ccccc2CC4)-c2ccccc2CC3)cc1 ... 452
Cc1cc(C)c(B(c2cc3c4c(c(B(c5c(C)cc(C)cc5C)c5c(C)cc(C)cc5C)cc5c4c2CCC5)CCC3)c2c(C)cc(C)cc2C)c(C)c1 ... 464.54
COc1ccc2cc(C#Cc3ccc([N+](=O)[O-])cc3)ccc2c1 ... 533
COc1cc(/C=C/c2nc3ccccc3s2)c(OC)cc1/C=C/c1nc(C)nc(C)n1 ... 488
COc1cc(/C=C/c2cc(OC)c(-c3nc(-c4ccccc4)c(-c4ccccc4)[nH]3)cc2OC)c(OC)cc1/C=C/c1cc(OC)c(-c2nc(-c3ccccc3)c(-c3ccccc3)[nH]2)cc1OC ... 510

In: Fill in emission maximum for record CCCCCCCc1ccc(C2=[N+]3C(=C4c5cc(OCC(CC)CC)c(-c6ccc(CCCCCCC)o6)n5[B-](F)(F)[n+]5nnn(c54)[B-]3(F)F)C=C2OCC(CC)CC)o1
Out: 829

In: Fill in emission maximum for record CCCCOc1ccc2cc(-c3ccc(C)cc3)c(=O)oc2c1
Out: 423

In: Fill in emission maximum for record CCN1c2ccc(/C=N/Nc3ccccn3)cc2Sc2cc(-c3ccccc3)ccc21
Out: 487

In: Fill in emission maximum for record N#Cc1c(N2CCCCC2)cc(-c2ccc(-c3ccccc3)s2)c2c1CCc1ccccc1-2
Out: 515

In: Fill in emission maximum for record N#C/C(=C\c1ccc(C=C(c2ccccc2)c2ccccc2)cc1)c1ccccc1
Out: 468

###

test.method.notes: solvent given as SMILES
experimental.setup: in ClCCl
Each entry below carries its reported emission maximum.
Record the value in nm, omitting the unit from your answer.

These recorded examples may help you get a feel for the data.
F[B-]12Oc3ccccc3-c3c4[n+]5c(c([n+]31)-c1ccccc1O2)-c1ccccc1O[B-]5(F)Oc1ccccc1-4 ... 623
c1ccc(-n2c(-c3cccc4ccccc34)nc3c4ccccc4c4ccccc4c32)cc1 ... 415.6
ClP1(Cl)=N[P@@](Cl)(Oc2ccc3ccc4cccc5ccc2c3c45)=N[P@@](Cl)(Oc2ccc3ccc4cccc5ccc2c3c45)=N1 ... 455

Read the next record carefully.
In: Fill in emission maximum for record Cc1c(C(=O)c2ccccc2)c2ccc3cccc4c5cccc6ccc1c(c65)c2c34
Out: 478

###

Each entry below carries its reported emission maximum.
test.method.notes: solvent given as SMILES
experimental.setup: in c1cc(-c2cccc(-n3c4ccccc4c4ccccc43)c2)cc(-n2c3ccccc3c3ccccc32)c1
Record the value in nm, omitting the unit from your answer.

In: Fill in emission maximum for record CC1(C)c2ccccc2N(c2ccc3nc4c5ccc(N6c7ccccc7C(C)(C)c7ccccc76)cc5c5cc(N6c7ccccc7C(C)(C)c7ccccc76)ccc5c4nc3c2)c2ccccc21
Out: 590

In: Fill in emission maximum for record O=C(c1ccc(C(=O)c2ccc(N3c4ccccc4Oc4ccccc43)cc2)cc1)c1ccc(N2c3ccccc3Oc3ccccc32)cc1
Out: 555

In: Fill in emission maximum for record N#Cc1nc(-c2ccc(N3c4ccccc4Oc4ccccc43)cc2)c(-c2ccc(N3c4ccccc4Oc4ccccc43)cc2)nc1C#N
Out: 610

In: Fill in emission maximum for record CC(C)c1cc(C(C)C)c(B2c3cc(N4c5ccccc5C(C)(C)c5ccccc54)ccc3N(c3ccccc3)c3ccc(N4c5ccccc5C(C)(C)c5ccccc54)cc32)c(C(C)C)c1
Out: 469

In: Fill in emission maximum for record N#Cc1cc(-c2ccc(N3c4ccccc4Oc4ccccc43)cc2)c(-c2ccc(N3c4ccccc4Oc4ccccc43)cc2)cc1C#N
Out: 540

In: Fill in emission maximum for record CC(C)c1cc(C(C)C)c(B2c3cc(-n4c5ccccc5c5ccccc54)ccc3N(c3ccccc3)c3ccc(-n4c5ccccc5c5ccccc54)cc32)c(C(C)C)c1
Out: 452
